Hello, the source for this data is patent US20260132182A1, in case you need it.

- tested.on: T1, human amylin-3 (a) receptor (human, UniProt P30988 25-474; O60896 24-148)
- T1 sequence (looked up) 1: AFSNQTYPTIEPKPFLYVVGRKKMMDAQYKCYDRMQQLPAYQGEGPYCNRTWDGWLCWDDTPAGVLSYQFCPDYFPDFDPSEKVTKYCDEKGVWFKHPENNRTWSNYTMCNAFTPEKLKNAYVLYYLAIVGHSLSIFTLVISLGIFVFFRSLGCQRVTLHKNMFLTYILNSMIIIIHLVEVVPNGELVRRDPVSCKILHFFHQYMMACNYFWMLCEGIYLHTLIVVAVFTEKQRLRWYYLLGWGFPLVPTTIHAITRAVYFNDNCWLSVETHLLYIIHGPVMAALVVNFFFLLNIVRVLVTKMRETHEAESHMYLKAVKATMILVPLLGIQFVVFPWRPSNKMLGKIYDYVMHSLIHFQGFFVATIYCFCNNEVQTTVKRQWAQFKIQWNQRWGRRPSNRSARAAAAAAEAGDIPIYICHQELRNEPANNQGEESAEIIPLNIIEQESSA
- T1 sequence (looked up) 2: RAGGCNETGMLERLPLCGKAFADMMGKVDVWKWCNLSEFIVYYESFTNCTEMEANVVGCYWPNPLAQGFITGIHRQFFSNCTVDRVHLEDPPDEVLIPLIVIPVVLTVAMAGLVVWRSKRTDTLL
- measurement.protocol: cell-based or functional assay
Starred links: 1 amine or outer side, 2 acyl side, 3 side chain; linkers in the order of their positions; H or OH if unused. Non-standard residues stand in square brackets, D forms with d. Groups on a side chain read outwards from the residue. *: point of attachment. C20 diacid = O=C(O)CCCCCCCCCCCCCCCCCCC(=O)*; C18 diacid = O=C(O)CCCCCCCCCCCCCCCCC(=O)*; γGlu = O=C(O)[C@H](CCC(=O)[*:2])N[*:1]; AEEA = NCCOCCOCC(=O)O; Aib = CC(C)(N)C(=O)O
measure.name: Human AmyR3 potency [EC50 (pM)]
Please append the unit to your numeric answer.

Would you please look over these solved cases?
>  <binder>
Compound 0655 (peptide) peptide: H[Aib]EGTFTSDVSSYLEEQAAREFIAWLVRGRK([AEEA-AEEA-γGlu-17‑(1H-tetrazol-5-yl)heptadecanoyl])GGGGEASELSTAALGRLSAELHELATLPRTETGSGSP-NH2

>  <Human AmyR3 potency [EC50 (pM)]>
11.4 pM

$$$$
>  <binder>
Compound 0581 (peptide) peptide: H[Aib]EGTFTSDVSSYLEEQAARK([AEEA-AEEA-γGlu-C20 diacid])FIEWLVRGASELSTAALGRLSAELHELATLPRTETGSGSP-NH2

>  <Human AmyR3 potency [EC50 (pM)]>
26.4 pM

$$$$
>  <binder>
Compound 0160 (peptide) peptide: H[Aib]EGTFTSDVSSYLEEQAARK([γGlu-C18 diacid])FIAWLVRGRGGGGGGGGK([γGlu-C18 diacid])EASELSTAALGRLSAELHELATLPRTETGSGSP-NH2

>  <Human AmyR3 potency [EC50 (pM)]>
27.3 pM

$$$$

Shift focus to the following entry.
Returns the measured Human AmyR3 potency [EC50 (pM)] for the input binder. Input: Compound 0026 (peptide) peptide: H[Aib]EGTFTSDVSSYLEGQAAK([AEEA-AEEA-γGlu-C18 diacid])EFIAWLVRGRGQEPGQAPEASELSTAALGRLSAELHELATLPRTETGSGSP-NH2
14 pM
